Could you please report measured Percentage of inhibition of TNF-α production for the items listed next?
Tested on: TNF-α
Assay: Inhibition of TNF-α production by stimulated human peripheral blood leukocytes in vitro
Format: cell-based
Conditions: PBL, LPS stimulated, compound 50 μM
Numbers only, in %.

{"columns": ["COMPOUND", "VALUE UNIT", "DATA VALUE"],
 "data": [
  ["CC[C@H]1OC(=O)[C@H](C)C2O[C@@](C)(C[C@@H](C)CN(C(=O)NCc3ccccc3)[C@H](C)[C@@H](O)[C@]1(C)O)[C@H](O[C@@H]1O[C@H](C)C[C@H](N(C)C)[C@H]1O)[C@H]2C [Compound 11]", "%", 51],
  ["CC[C@H]1OC(=O)[C@H](C)[C@@H](O[C@H]2C[C@@](C)(OC)[C@@H](O)[C@H](C)O2)[C@H](C)[C@@H](O[C@@H]2O[C@H](C)C[C@H](N(C)C)[C@H]2O)[C@](C)(O)C[C@@H](C)CN(C(=O)Nc2ccc(Cl)c(C(F)(F)F)c2)[C@H](C)[C@@H](O)[C@]1(C)O [Compound 10]", "%", 99]
]}

Hello, I would appreciate it if you could give Percentage of inhibition of TNF-α production for each entry below.
1. CC[C@H]1OC(=O)[C@H](C)[C@@H](O)[C@H](C)[C@@H](O[C@@H]2O[C@H](C)C[C@H](N(C)C)[C@H]2O)[C@](C)(O)C[C@@H](C)CN(C(=O)NCc2ccccc2)[C@H](C)[C@@H](O)[C@]1(C)O [Compound 8]
2. CCC1OC(=O)C(C)C(OC2CC(C)(OC)C(O)C(C)O2)C(C)C(OC2OC(C)CC(N(C)C)C2O)C(C)(O)CC(C)CN(C(=S)Nc2cccc(F)c2)C(C)C(O)C1(C)O (stereo not shown) [Compound 3]

[30, 74]

###

System: human peripheral blood mononuclear cells (PBMC)
Assay: Human T-cell proliferation in vitro (3H-thymidine incorporation)
Format: cell-based
Settings: Homo sapiens, PBMC, PHA stimulated, compound 10 μM; read-out: Percentage of inhibition of proliferation of stimulated PBMC
RECORDED ENDPOINT: inhibition at 10 µM (%)
Numbers only, in %.

If you can, please state the reported inhibition at 10 µM value of "CC[C@H]1OC(=O)[C@H](C)[C@@H](O[C@H]2C[C@@](C)(OC)[C@@H](O)[C@H](C)O2)[C@H](C)[C@@H](O[C@@H]2O[C@H](C)C[C@H](N(C)C)[C@H]2O)[C@](C)(O)C[C@@H](C)CN(C(=S)Nc2cccc(C(F)(F)F)c2)[C@H](C)[C@@H](O)[C@]1(C)O" . 30

###

System: IL-1α
Experiment: Inhibition of IL-1 production by stimulated human peripheral blood leukocytes in vitro
Type: cell-based
Settings: Homo sapiens, Leukocyte, PBL, zymosan stimulated, compound 10 μM; read-out: Percentage of inhibition of IL-1α production
Could you please report measured inhibition at 10 µM for the items listed next?
Numbers only, in %.

{"columns": ["COMPOUND", "DATA VALUE"],
 "data": [
  ["CC[C@H]1OC(=O)[C@H](C)[C@@H](O[C@H]2C[C@@](C)(OC)[C@@H](O)[C@H](C)O2)[C@H](C)[C@@H](O[C@@H]2O[C@H](C)C[C@H](N(C)C)[C@H]2O)[C@](C)(O)C[C@@H](C)CN(C(=O)NC(C)c2cccc3ccccc23)[C@H](C)[C@@H](O)[C@]1(C)O (some centres unmarked)", 80]
]}

Hello, I would appreciate it if you could give inhibition at 10 µM for each entry below.
1. CC[C@H]1OC(=O)[C@H](C)[C@@H](O[C@H]2C[C@@](C)(OC)[C@@H](O)[C@H](C)O2)[C@H](C)[C@@H](O[C@@H]2O[C@H](C)C[C@H](N(C)C)[C@H]2O)[C@](C)(OC)C[C@@H](C)C(=O)[C@H](C)[C@@H](O)[C@]1(C)O [Clarithromycin, clarithromycin, reference compound]
2. CC[C@H]1OC(=O)[C@H](C)[C@@H](O[C@H]2C[C@@](C)(OC)[C@@H](O)[C@H](C)O2)[C@H](C)[C@@H](O[C@@H]2O[C@H](C)C[C@H](N(C)C)[C@H]2O)[C@](C)(O)C[C@@H](C)CN(C(=S)Nc2ccccc2F)[C@H](C)[C@@H](O)[C@]1(C)O
3. CC[C@H]1OC(=O)[C@H](C)[C@@H](O[C@H]2C[C@@](C)(OC)[C@@H](O)[C@H](C)O2)[C@H](C)[C@@H](O[C@@H]2O[C@H](C)C[C@H](N(C)C)[C@H]2O)[C@](C)(O)C[C@@H](C)CN(C(=S)Nc2cccc(Br)c2)[C@H](C)[C@@H](O)[C@]1(C)O
4. CC[C@H]1OC(=O)[C@H](C)[C@@H](O[C@H]2C[C@@](C)(OC)[C@@H](O)[C@H](C)O2)[C@H](C)[C@@H](O[C@@H]2O[C@H](C)C[C@H](N(C)C)[C@H]2O)[C@](C)(O)C[C@@H](C)CN(C)[C@H](C)[C@@H](O)[C@]1(C)O [Azithromycin, azithromycin, reference compound]

[36, 27, 67, 20]
